Values of IC50 for Serine/threonine-protein kinase pim-1 (Homo sapiens, UniProt P11309), collected from a number of published sources:

I'm curious: which IC50 was measured for C[C@H]1CN(c2ccncc2NC(=O)c2nc3cc(C4CCOCC4)ccc3cc2N)C[C@@H](N)[C@H]1n1ccnn1 tested on Serine/threonine-protein kinase pim-1 (Homo sapiens, UniProt P11309)?
≤ 100 nM

Observed IC50 on Serine/threonine-protein kinase pim-1 (Homo sapiens, UniProt P11309) for COC(=O)N[C@@H]1[C@H](N)CN(c2ccncc2NC(=O)c2nc3cc(C4CCN(C)CC4)ccc3cc2N)C[C@@H]1C , please.
≤ 100 nM

Value wanted: IC50 (Serine/threonine-protein kinase pim-1 (Homo sapiens, UniProt P11309)) of entry C[C@H]1CN(c2ccncc2NC(=O)c2nc3cc(N4CCCCC4=O)ccc3cc2N)C[C@@H](N)[C@@H]1O
≤ 100 nM

// fetch Serine/threonine-protein kinase pim-1 (Homo sapiens, UniProt P11309) IC50 for CCc1ccc2cc(N)c(C(=O)Nc3cncc(C#N)c3N3CCC[C@H](N)C3)nc2c1
≤ 100 nM

Identify the measured IC50 of C[C@H]1CN(c2ccncc2NC(=O)c2ccc3cc([C@@H]4C[C@@H]4C)oc3n2)C[C@@H](N)[C@@H]1O (racemic) for Serine/threonine-protein kinase pim-1 (Homo sapiens, UniProt P11309).
≤ 10 nM

Given the entry C[C@H]1CN(c2ccncc2NC(=O)c2nc3cc(N4CCN(C)C(=O)C4)ccc3cc2N)C[C@@H](N)[C@H]1n1ccnn1 , what IC50 was observed with Serine/threonine-protein kinase pim-1 (Homo sapiens, UniProt P11309)?
≤ 100 nM

Hello, I am looking for reported IC50 with Serine/threonine-protein kinase pim-1 (Homo sapiens, UniProt P11309) for C[C@H]1C[C@@H](c2ccncc2NC(=O)c2csc(-c3c(F)cccc3F)n2)C[C@@H](N)[C@@H]1O . Could you help?
4 nM

----------
The entries that follow carry log10 of IC50 values tested on Serine/threonine-protein kinase pim-1 (Homo sapiens, UniProt P11309), drawn from several published reports.
Values are log10 of IC50 in nM.

What measured log10 of IC50 is associated with O=C1NC(=O)c2c1c1c3cccc(O)c3[nH]c1c1[nH]c3c(O)cccc3c21 on Serine/threonine-protein kinase pim-1 (Homo sapiens, UniProt P11309)?
0.59

Give log10 of IC50 (Serine/threonine-protein kinase pim-1 (Homo sapiens, UniProt P11309)) of the following compound: C[C@H]1CN(c2ccncc2NC(=O)c2ccc(F)c(-c3c(F)cc(O[C@@H]4CCCOC4)cc3F)n2)C[C@@H](N)[C@@H]1O
-2.00

Return log10 of IC50 measured with Serine/threonine-protein kinase pim-1 (Homo sapiens, UniProt P11309) given this compound: C[C@H]1CN(c2ccncc2NC(=O)c2ccc(F)c(-c3c(F)cc(OC4COC4)cc3F)n2)C[C@@H](N)[C@@H]1O
-2.00

Query for Serine/threonine-protein kinase pim-1 (Homo sapiens, UniProt P11309): what log10 of IC50 does the record show for C[C@H]1CN(c2ccncc2NC(=O)c2ccc(F)c(-c3c(F)cc(OCC4CCOCC4)cc3F)n2)C[C@@H](N)[C@@H]1O ?
-2.00

log10 of IC50 of CN1CCN(Cc2ccc(-c3c(-c4cccc(OC(F)(F)F)c4)cc4n3[C@@H](CCCl)CNC4=O)cc2)CC1 on Serine/threonine-protein kinase pim-1 (Homo sapiens, UniProt P11309)?
1.43

What reported log10 of IC50 corresponds to C[C@H]1CN(c2ccncc2NC(=O)c2ccc(F)c(-c3c(F)cc(C4CCOCC4)cc3F)n2)C[C@@H](N)[C@@H]1O on Serine/threonine-protein kinase pim-1 (Homo sapiens, UniProt P11309)?
-2.00

Find log10 of IC50 (Serine/threonine-protein kinase pim-1 (Homo sapiens, UniProt P11309)) for the entry CC(C)NC(=O)c1ccc2ccc(-c3nnc4ccc([C@H](N5CC[C@@H](N)C5)C(F)(F)F)cn34)nc2c1
0.14

Identify the measured log10 of IC50 of OC1CCCCC1Nc1nc2c(Br)c(Br)c(Br)c(Br)c2[nH]1 (centres unmarked) for Serine/threonine-protein kinase pim-1 (Homo sapiens, UniProt P11309).
1.15
